# target under test: RET (V804M) (Homo sapiens (Human), UniProt P07949, V804M)
# Sequence (P07949 29-1114 V804M): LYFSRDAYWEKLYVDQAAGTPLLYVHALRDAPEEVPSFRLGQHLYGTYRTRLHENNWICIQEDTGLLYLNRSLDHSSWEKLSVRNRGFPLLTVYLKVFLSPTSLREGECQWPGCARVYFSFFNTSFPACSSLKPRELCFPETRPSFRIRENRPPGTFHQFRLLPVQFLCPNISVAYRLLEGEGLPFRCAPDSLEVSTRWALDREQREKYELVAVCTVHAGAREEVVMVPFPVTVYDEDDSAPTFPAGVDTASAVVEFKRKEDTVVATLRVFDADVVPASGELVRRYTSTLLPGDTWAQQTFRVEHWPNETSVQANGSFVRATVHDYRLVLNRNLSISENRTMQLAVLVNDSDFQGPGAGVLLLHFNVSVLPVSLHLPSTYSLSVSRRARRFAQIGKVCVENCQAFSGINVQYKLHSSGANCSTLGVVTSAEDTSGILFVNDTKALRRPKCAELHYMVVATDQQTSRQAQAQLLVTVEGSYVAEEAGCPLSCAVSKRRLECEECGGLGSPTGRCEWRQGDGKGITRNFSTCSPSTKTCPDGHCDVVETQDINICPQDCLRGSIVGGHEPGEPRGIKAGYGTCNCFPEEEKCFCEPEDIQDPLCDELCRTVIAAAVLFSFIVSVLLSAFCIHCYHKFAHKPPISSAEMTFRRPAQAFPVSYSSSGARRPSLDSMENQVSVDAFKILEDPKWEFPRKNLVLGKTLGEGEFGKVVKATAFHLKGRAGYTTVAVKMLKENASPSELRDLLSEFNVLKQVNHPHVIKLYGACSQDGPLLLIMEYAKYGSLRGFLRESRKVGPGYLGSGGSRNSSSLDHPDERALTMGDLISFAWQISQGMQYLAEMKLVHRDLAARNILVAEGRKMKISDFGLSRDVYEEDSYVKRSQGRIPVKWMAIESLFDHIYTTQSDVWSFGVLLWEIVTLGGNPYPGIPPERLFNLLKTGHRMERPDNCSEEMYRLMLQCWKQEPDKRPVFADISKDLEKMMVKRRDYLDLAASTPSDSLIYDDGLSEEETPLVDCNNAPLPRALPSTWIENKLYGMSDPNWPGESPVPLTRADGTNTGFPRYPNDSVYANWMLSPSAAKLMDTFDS
# assay comment: HTRF kinase activity assay, RET (V804M)
# Format: biochemical
# applied conditions: 10 μM ATP
quantity name: pIC50
Just the number, please; pIC50 means minus log10 of the concentration in mol/L.

GET /value?item= `COc1ccc(CN2CCN(c3ccc(-c4cc(-c5cc6n(n5)CCC6)cn5ncc(C#N)c45)cn3)CC2)cn1` &field=pIC50 returns 7.71

GET /value?item= COc1ccc(CN2C3CC2CN(c2ccc(-c4cc(N5CCC(O)C5)cn5ncc(C#N)c45)cn2)C3)cn1 (stereo not drawn) &field=pIC50 returns 8.96

GET /value?item= `COc1ccc(CN2C3CC2CN(c2ccc(-c4cc(N5CCOCC5=O)cn5ncc(C#N)c45)cn2)C3)cn1` &field=pIC50 returns 7.41
